Documented inhibition at 1 µM across a set of molecules
# System: HSC3
# procedure text: MTT assay, HSC3 head and neck cancer cells
# Type: cell-based
# measurement parameters: Homo sapiens, HSC-3, 72 h, HSC3, 1 µM, 72 h; read-out: % cell growth inhibition
Unit % implied. Number only.

**Q:** Name the reported inhibition at 1 µM value associated with the molecule `CCOC(=O)c1c(NC(=O)CN2CCC(C)CC2)sc2c1CCN(C(=O)OCC)C2`
**A:** 4.06

**Q:** Also, `CCOC(=O)c1c(NC(=O)CN2CCN(c3ccccc3OC)CC2)sc2c1CCN(C(=O)OCC)C2` please.
**A:** 0

**Q:** Also, `CCOC(=O)c1c(NC(=O)CN2CCSCC2)sc2c1CCN(C(=O)OCC)C2` please.
**A:** 14.8

**Q:** Also, `CCOC(=O)c1c(NC(=O)CN2CCCCC2)sc2c1CCN(C(=O)OCC)C2` please.
**A:** 4.26

**Q:** Also, `CCOC(=O)c1c(NC(=O)CN2CCN(C(=O)c3ccco3)CC2)sc2c1CCN(C(=O)OCC)C2` please.
**A:** 0

**Q:** Also, `CCOC(=O)c1c(NC(=O)CN2CCN(C(=O)OC(C)(C)C)CC2)sc2c1CCN(C(=O)OCC)C2` please.
**A:** 0
